test system: BDF1 mice, B16 melanoma ip, median survival T/C; test: NCI In Vivo Anticancer Drug Screen. Data for tumor model B16 Melanoma (intraperitoneal) in B6D2F1 (BDF1) mice; details: endpoint: median survival time; dose: 50.0 mg/kg/injection; schedule: Q01DX009 (ip); vehicle: Klucel (hydroxypropylcellulose) (HPC)
Toxic doses and inconclusive results are not listed. How the source made its calls: active means survival T/C of 150% or more; inactive means T/C below 125% in these data.
Possible outcomes: t = active, f = inactive

- Nc1ccccc1SC1CC(=O)N(c2ccc(I)cc2)C1=O (configuration not stated): f
- O=C1N(c2nncs2)CCN1[N+](=O)[O-]: f
- COC(=O)C1C(O)C(C)C(O)C(C)/C=C\C=C(C)C(=O)Nc2c(C)c(OC(C)=O)c3c(c2O)C(=O)C(C)=C2OCOC(=C23)C(C)=CC(C)(O)C(O)C(C)C1O (configuration not stated): f
- CCCC(=O)OCc1cc(=O)n(C)c2c3c4c(cc12)c(C)cc(=O)n4CO3: t
- C1=CC2(OCCO2)C2CC=CC3(OCCO3)C2C1 (configuration not stated): f
- O=C(O)c1ccccc1C(=O)Nc1cc(Cl)ccc1Cl: f
- CC1=C/C(O)CC(=O)Cc2nc(co2)C(=O)N2CCC=C2C(=O)OC(C(C)C)C(C)/C=C\C(=O)NC/C=C\1 (configuration not stated): f
- O=C(Nc1ccccc1F)c1cccc(C(=O)Nc2ccccc2F)c1: f
- Nc1nc(-c2ccccc2N=NN2CCCC2)nc2ccccc12: f
- Cc1cccc(NC(=O)Nc2ccccc2Cl)n1: f
- CC(C)C1(c2ccsc2)NC(=O)NC1=O (configuration not stated): f
- N#CC(Nc1ccccc1)c1ccccc1 (configuration not stated): f

---

system: BDF1 mice, B16 melanoma ip, median survival T/C; experiment: NCI In Vivo Anticancer Drug Screen. Data for tumor model B16 Melanoma (intraperitoneal) in B6D2F1 (BDF1) mice; settings: endpoint: median survival time; dose: 3.13 mg/kg/injection; schedule: Q01DX009 (ip); vehicle: saline with Tween-80
Inconclusive results and toxic doses are left out. How the source made its calls: active means survival T/C of 150% or more; inactive means T/C below 125% in these data.
Possible outcomes: active, inactive

* O=C1NC(Cc2ccc(N(CCCl)CCCl)cc2)C(=O)O1 (stereo not drawn) | active
* O=C(C=C(C(F)(F)F)C(F)(F)F)c1cccc(S(=O)(=O)F)c1 | inactive
* C/C(=N/O)[c-]1[c-][c-][c-][c-]1.[Fe].[c-]1[c-][c-][cH-][c-]1 | inactive

---

test system: BDF1 mice, B16 melanoma ip, median survival T/C; experiment: NCI In Vivo Anticancer Drug Screen. Data for tumor model B16 Melanoma (intraperitoneal) in B6D2F1 (BDF1) mice; settings: endpoint: median survival time; dose: 50.0 mg/kg/injection; schedule: Q01DX009 (ip); vehicle: Klucel (hydroxypropylcellulose) (HPC); higher = longer survival
Inconclusive results and toxic doses are left out.
Each entry below carries its reported T/C.
property: T/C

• CC(=O)NS(=O)(=O)c1ccc(NC(=O)c2ccccc2C(=O)O)cc1 = 98 % of control
• CC1(C)N=C(N)N=C(N)N1c1cccc(OCCOc2ccc([N+](=O)[O-])cc2)c1 = 102 % of control
• Cc1ccc(Cl)cc1NC(=O)c1cccc(C(=O)Nc2cc(Cl)ccc2C)c1 = 96 % of control

---

tested on: BDF1 mice, B16 melanoma ip, median survival T/C; assay: NCI In Vivo Anticancer Drug Screen. Data for tumor model B16 Melanoma (intraperitoneal) in B6D2F1 (BDF1) mice; conditions: endpoint: median survival time; dose: 3.13 mg/kg/injection; schedule: Q01DX009 (ip); vehicle: Klucel (hydroxypropylcellulose) (HPC); higher = longer survival
Inconclusive results and toxic doses are left out.
property: T/C

• C=C1C(=O)OC2C1CCC(C)C1CCC(=O)OC12C (centres undefined) = 97 % of control
• c1ccc(CC[P+](c2ccccc2)(c2ccccc2)c2ccccc2)cc1 = 92 % of control
• CCCCCCCCCCCCCCCC(=O)N(CCCN(CC)CC)C(C)CCCN(CC)CC (centres undefined) = 102 % of control
• C=C1C(=O)OC2/C=C(\CO)C(OC(C)=O)CC(O)/C(C)=C/C(OC(=O)C(C)CC)C12 (centres undefined) = 101 % of control
